- TARGET OR TEST SYSTEM: Abeta:Zn (25:50 μM) Synthetic Aggregations (Homo sapiens)
- Construct: PB Compound Mediated Dissolution of Aggregated Abeta 1-42; purchased Keck Laboratory, Yale University School of Medicine
- Sequence (P05067 672-713 limits assumed): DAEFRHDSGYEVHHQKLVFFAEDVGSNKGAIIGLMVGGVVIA
- EXPERIMENTAL DETAILS: Disaggregation of Abeta:Zn synthetic aggregates (ThT fluorescence)
- Format: biochemical
- REPORTED CONDITIONS: 5 μM test compound
READOUT LABEL: Disaggregation % Aggregate reduction at 5 μM (%)
One number for each entry, in %.

Solved cases below.
{"columns": ["COMPOUND", "QUANTITATIVE RESULT"],
 "data": [
  ["O=c1c(-c2ccc(Cl)cc2)cnc2c(O)c(I)ccn12", 40.5],
  ["CCC(C)n1cnc2c(O)c(Cl)cc(Cl)c2c1=O (centres unmarked)", 46.4],
  ["Br.Oc1cccc2c(=S)n(Cc3ccccn3)cnc12", 25.5]
]}

Give Disaggregation % Aggregate reduction at 5 μM for each listed item.
1. Br.CNCc1nc2c(O)c(Cl)cc(Cl)c2c(=O)n1C
2. Br.CCN(CC)Cc1nc2c(O)c(Cl)cc(Cl)c2c(=O)[nH]1
3. O=c1c2c(Cl)cc(Cl)c(O)c2ncn1Cc1cccc(Cn2cnc3c(O)c(Cl)cc(Cl)c3c2=O)n1
4. CCCCc1cnc2c(O)cccn2c1=S
5. O=c1c2c(Cl)ccc(O)c2ncn1Cc1ccccn1
6. O=C(NCc1ccc(F)cc1)c1cnc2c(O)cccn2c1=O

Found:
27
41
45
70
22
31

Give Disaggregation % Aggregate reduction at 5 μM for each listed item.
1. Oc1c(C2CC2)ncc2cccnc12
2. O=c1c2ccc(I)c(O)c2ncn1CC1CC1
3. Br.CN(C)Cc1nc2c(O)c(Cl)cc(Cl)c2c(=O)[nH]1
4. CCCNC(=O)Cn1cnc2c(O)c(I)ccc2c1=O
5. CCn1cnc2c(O)c(Cl)cc(Cl)c2c1=O

Found:
1. 50
2. 47.5
3. 12.5
4. 21.7
5. 17

###

- Test system: dityrosine oligomerization
- EXPERIMENTAL DETAILS: CuTy: inhibition of dityrosine oligomerization
- Format: biochemical
- REPORTED CONDITIONS: referenced to in-house standard (set as 100% inhibition)
Provide the reported CuTy % inhibition of dityrosine oligomerization of each item.

{"columns": ["MOL", "TARGET OR TEST SYSTEM", "RESULT"],
 "data": [
  ["O=c1c2c(Cl)cc(Cl)c(O)c2ncn1Cc1cccc(Cn2cnc3c(O)c(Cl)cc(Cl)c3c2=O)n1", "dityrosine oligomerization", "10% inhibition"]
]}

Continue with the compound presented below.
# CuTy % inhibition of dityrosine oligomerization of "Br.CNCc1nc2c(O)c(Cl)cc(Cl)c2c(=O)n1C" = 100% inhib

###

- TARGET OR TEST SYSTEM: Aβ 1-42 (Homo sapiens, UniProt P05067)
- Construct: The reaction solutions contained Aβ 1-42 at concentrations
- EXPERIMENTAL DETAILS: Fluorometric H2O2 assay (inhibition of Abeta H2O2 production)
- Type: biochemical
- REPORTED CONDITIONS: concentration required to inhibit 50% of Abeta H2O2 production; read-out: H2O2 IC50
Provide the reported pIC50 of each item.
Answers are plain numbers, as −log10 of the molar value.

{"columns": ["COMPOUND", "TARGET OR TEST SYSTEM", "pIC50"],
 "data": [
  ["O=c1c2c(Cl)cc(Cl)c(O)c2ncn1-c1ccc2[nH]ncc2c1 [PB 1246]", "Aβ 1-42 (Homo sapiens, UniProt P05067)", 6.51],
  ["COc1cc(NS(=O)(=O)c2ccc(C)cc2)c2ncccc2c1 [PB 116]", "Aβ 1-42 (Homo sapiens, UniProt P05067)", 6.30],
  ["CNCc1ccc2c(Cl)cc(Cl)c(O)c2n1.Cl [PB 1104]", "Aβ 1-42 (Homo sapiens, UniProt P05067)", 6.46],
  ["O=c1c2c(Cl)cc(Cl)c(O)c2ncn1Cc1cn2ccccc2n1 [PB 1239]", "Aβ 1-42 (Homo sapiens, UniProt P05067)", 6.32],
  ["O=c1c2c(Cl)ccc(O)c2ncn1Cc1ccccn1 [PB 1133]", "Aβ 1-42 (Homo sapiens, UniProt P05067)", 6.10],
  ["Cc1ccccc1-c1cc(-c2ccccc2C)c2cccnc2c1O [PB 852]", "Aβ 1-42 (Homo sapiens, UniProt P05067)", 5.68],
  ["O=c1c2cccc(O)c2ncn1-c1ccc(F)cc1 [PB 1156]", "Aβ 1-42 (Homo sapiens, UniProt P05067)", 6.02],
  ["Oc1cc2cccnc2c2cccnc12 [PB 1026]", "Aβ 1-42 (Homo sapiens, UniProt P05067)", 6.64]
]}

Give pIC50 for each listed item.
1. Oc1c(I)cc(I)c2cccnc12 [PB 46]
2. O=C(NCc1ccc(F)cc1)c1cnc2c(O)c(I)ccn2c1=O [PB 1158]
3. O=c1c2c(Cl)cc(I)c(O)c2ncn1CC1CC1 [PB 1140]
4. O=c1c2c(Cl)cc(I)c(O)c2ncn1-c1cccnc1 [PB 1164]
5. Oc1ccc(/C=C/c2ccc3cccc(O)c3n2)cc1 [PB 89]
6. O=c1c2cccc(O)c2ncn1Cc1ccccn1 [PB 1117]
7. Oc1c(-c2ccccc2C(F)(F)F)cc(Cl)c2cccnc12 [PB 864]

Found:
6.40
6.00
6.44
6.62
5.60
6.14
6.11
